Experiment: Single dose PK in healthy subjects (Cohorts 1, 2, S1 and S2), plasma
Format: in vivo, human
Settings: human, plasma, intravenous, 56 mg; 8 hr; read-out: Plasma concentration, Q3
measurement type: concentration at 8 h (ng/mL)
Numbers only here, please. The scale is ng/mL.

Name the recorded concentration at 8 h for `COC(=O)N1CCC[C@H](NS(C)(=O)=O)[C@@H]1CO[C@H]1CC[C@@H](c2ccccc2)CC1` . 108

---

Experiment: Single dose PK in healthy subjects (Cohorts 1, 2, S1 and S2), plasma
Assay type: in vivo, human
Settings: human, plasma, intravenous, 134.4 mg; 2 hr; read-out: Plasma concentration, Q1
measurement type: concentration at 2 h
Reply with the number and its unit after it.

// concentration at 2 h lookup, key: COC(=O)N1CCC[C@H](NS(C)(=O)=O)[C@@H]1CO[C@H]1CC[C@@H](c2ccccc2)CC1 [Compound A] 199 ng/mL

---

Assay: Single dose PK in healthy subjects (Cohorts 1, 2, S1 and S2), plasma
Format: in vivo, human
Details: human, plasma, intravenous, 240 mg; 0.5 hr; read-out: Plasma concentration, Q1
measurement type: concentration at 0.5 hr
The reply must contain the numeric value and, after it, the unit.

// query concentration at 0.5 hr value for entry COC(=O)N1CCC[C@H](NS(C)(=O)=O)[C@@H]1CO[C@H]1CC[C@@H](c2ccccc2)CC1 [Compound A] 230 ng/mL

---

Experiment: Single dose PK in healthy subjects (Cohorts 1, 2, S1 and S2), plasma
Format: in vivo, human
Settings: human, plasma, intravenous, 112 mg; 2 hr; read-out: Plasma concentration, Q3
measurement type: concentration at 2 h (ng/mL)
Give the quantity in ng/mL, number only.

Give the measured concentration at 2 h of `COC(=O)N1CCC[C@H](NS(C)(=O)=O)[C@@H]1CO[C@H]1CC[C@@H](c2ccccc2)CC1` . 220

---

Experiment: Multiple-dose PK of intravenous Compound A in patients with NT1 (Cohorts B1, B2), plasma
Format: in vivo, human
Details: human, plasma, intravenous, 11 mg; Day 1; read-out: Cmax, Geo Mean
measurement type: Cmax
Include the unit after the number when you answer.

For `COC(=O)N1CCC[C@H](NS(C)(=O)=O)[C@@H]1CO[C@H]1CC[C@@H](c2ccccc2)CC1` , what is its reported Cmax? 0.0182 µg/mL

---

Experiment: Single dose PK in patients with narcolepsy (Cohorts 5, 6 and 7), plasma
Assay type: in vivo, human
Details: human, plasma, intravenous, 11.2 mg, Cmpd A 11.2 mg; Geo Mean; Cohort 5, 6, 7
measurement type: Cmax (ng/mL)
Numbers only here, please. The scale is ng/mL.

So what does the record say about Cmax for `COC(=O)N1CCC[C@H](NS(C)(=O)=O)[C@@H]1CO[C@H]1CC[C@@H](c2ccccc2)CC1` ? 21.9

---

Assay: Single dose PK in healthy subjects (Cohorts 1, 2, S1 and S2), plasma
Assay type: in vivo, human
Conditions: human, plasma, intravenous, 134.4 mg; 3 hr; read-out: Plasma concentration, Mean
From the text: […]
measurement type: concentration at 3 h (ng/mL)
Numbers only here, please. The scale is ng/mL.

Sample `COC(=O)N1CCC[C@H](NS(C)(=O)=O)[C@@H]1CO[C@H]1CC[C@@H](c2ccccc2)CC1` — what was its concentration at 3 h? 288

---

Assay: Single dose PK in healthy subjects (Cohorts 1, 2, S1 and S2), plasma
Type: in vivo, human
Details: human, plasma, intravenous, 28 mg; 0.5 hr; read-out: Plasma concentration, Median
measurement type: concentration at 0.5 hr
Could you give the number and then its unit, please?

State the recorded concentration at 0.5 hr for this entry: `COC(=O)N1CCC[C@H](NS(C)(=O)=O)[C@@H]1CO[C@H]1CC[C@@H](c2ccccc2)CC1` 32 ng/mL

---

Experiment: Single dose PK in healthy subjects (Cohorts 1, 2, S1 and S2), plasma
Assay type: in vivo, human
Details: human, plasma, intravenous, 7 mg; 2 hr; read-out: Plasma concentration, Minimum
Description: […]
measurement type: concentration at 2 h (ng/mL)
API: value field is a number in ng/mL; no unit string.

Quick one: concentration at 2 h for `COC(=O)N1CCC[C@H](NS(C)(=O)=O)[C@@H]1CO[C@H]1CC[C@@H](c2ccccc2)CC1` ? 10.9

---

Assay: Single dose PK in healthy subjects (Cohorts 1, 2, S1 and S2), plasma
Format: in vivo, human
Details: human, plasma, iv, 240 mg, 240 mg single IV infusion, healthy subjects; read-out: tmax Mean
measurement type: Tmax (h)
Use h as the unit, but write only the number.

Query (molecule): `COC(=O)N1CCC[C@H](NS(C)(=O)=O)[C@@H]1CO[C@H]1CC[C@@H](c2ccccc2)CC1` ; field requested: Tmax 5.33

---

Assay: Single dose PK in healthy subjects (Cohorts 1, 2, S1 and S2), plasma
Assay type: in vivo, human
Settings: human, plasma, iv, 240 mg, 240 mg single IV infusion; 15 hr After End of Infusions; read-out: Plasma Concentration of Cmpd A, Q1
measurement type: concentration at 15 h after end of infusion (ng/mL)
Give a bare numeral; the unit ng/mL is implied.

Entry `COC(=O)N1CCC[C@H](NS(C)(=O)=O)[C@@H]1CO[C@H]1CC[C@@H](c2ccccc2)CC1` has what concentration at 15 h after end of infusion? 3.39

---

Assay: Multiple-dose PK of intravenous Compound A in patients with NT1 (Cohorts B1, B2), plasma
Type: in vivo, human
Details: human, plasma, intravenous, 11 mg; Day 1; read-out: AUCinf, Mean
measurement type: AUC(0-inf)
# answer = value followed by unit

For COC(=O)N1CCC[C@H](NS(C)(=O)=O)[C@@H]1CO[C@H]1CC[C@@H](c2ccccc2)CC1 [Compound A] , what is its reported AUC(0-inf)? 167 ng·h/mL

---

Experiment: Single dose PK in healthy subjects (Cohorts 1, 2, S1 and S2), plasma
Format: in vivo, human
Details: human, plasma, iv, 134.4 mg, 134.4 mg single IV infusion, healthy subjects; read-out: tmax Mean
measurement type: Tmax (h)
The figure you give is taken to be in h; do not add the unit.

Name the recorded Tmax for `COC(=O)N1CCC[C@H](NS(C)(=O)=O)[C@@H]1CO[C@H]1CC[C@@H](c2ccccc2)CC1` . 6.33

---

Experiment: Single dose PK in healthy subjects (Cohorts 1, 2, S1 and S2), plasma
Format: in vivo, human
Details: human, plasma, iv, 14 mg, 14 mg single IV infusion, healthy subjects; read-out: AUC24 Mean
From the text: […]
measurement type: AUC (ng·h/mL)
// units = ng·h/mL; emit number, no label

What value of AUC has been recorded for this entry: `COC(=O)N1CCC[C@H](NS(C)(=O)=O)[C@@H]1CO[C@H]1CC[C@@H](c2ccccc2)CC1` 326

---

Assay: Single dose PK in patients with narcolepsy (Cohorts 5, 6 and 7), plasma
Type: in vivo, human
Conditions: human, plasma, iv, 5 mg; 6 hr; NT1, single 9 h IV infusion; read-out: Plasma concentration, Median
measurement type: concentration at 6 h

What value of concentration at 6 h has been recorded for this entry: `COC(=O)N1CCC[C@H](NS(C)(=O)=O)[C@@H]1CO[C@H]1CC[C@@H](c2ccccc2)CC1` 7.97 ng/mL

---

Assay: Single dose PK in healthy subjects (Cohorts 1, 2, S1 and S2), plasma
Format: in vivo, human
Details: human, plasma, intravenous, 180 mg; 0.5 hr; read-out: Plasma concentration, Minimum
Text: […]
measurement type: concentration at 0.5 hr (ng/mL)
Give the value in ng/mL but do not write ng/mL after it.

Consider the compound COC(=O)N1CCC[C@H](NS(C)(=O)=O)[C@@H]1CO[C@H]1CC[C@@H](c2ccccc2)CC1 [Compound A] and give its measured concentration at 0.5 hr. 161

---

Experiment: Single dose PK in healthy subjects (Cohorts 1, 2, S1 and S2), plasma
Type: in vivo, human
Conditions: human, plasma, intravenous, 112 mg; 6 hr; read-out: Plasma concentration, Maximum
measurement type: concentration at 6 h (ng/mL)
Give your result in ng/mL as a bare value.

Value lookup for concentration at 6 h; key = `COC(=O)N1CCC[C@H](NS(C)(=O)=O)[C@@H]1CO[C@H]1CC[C@@H](c2ccccc2)CC1` 206

---

Assay: Single dose PK in healthy subjects (Cohorts 1, 2, S1 and S2), plasma
Assay type: in vivo, human
Conditions: human, plasma, iv, 112 mg, 112 mg single IV infusion, healthy subjects; read-out: AUClast Geo Mean
measurement type: AUC(0-t) (ng·h/mL)
// return numeric value only (unit: ng·h/mL, not printed)

What AUC(0-t) value was documented for this compound, `COC(=O)N1CCC[C@H](NS(C)(=O)=O)[C@@H]1CO[C@H]1CC[C@@H](c2ccccc2)CC1` ? 2070

---

Test: Single dose PK in healthy subjects (Cohorts 1, 2, S1 and S2), plasma
Format: in vivo, human
Settings: human, plasma, iv, 180 mg, 180 mg single IV infusion, healthy subjects; read-out: AUClast Median
measurement type: AUC(0-t) (ng·h/mL)
Only the number, expressed in ng·h/mL, is required.

// returns reported AUC(0-t) for input COC(=O)N1CCC[C@H](NS(C)(=O)=O)[C@@H]1CO[C@H]1CC[C@@H](c2ccccc2)CC1 [Compound A] 3040

Values were extracted from patent US20220339143A1.
